# System: c-Src
# Protocol Details: phosphorylation enrichment, bacterial display (enrichment ratio); higher = better substrate or ligand; peptides without Tyr show the background;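 further: 11-residue human phosphosite peptides and single-mutation variants displayed on the E. coli surface, counted by deep sequencing, each peptide's frequency after selection divided by its frequency in the unselected input library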;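 further: frequency after pTyr selection over input frequency; kinase dosed for 20-30% of maximal phosphorylation in three min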
Provide the recorded phosphorylation enrichment for the entries that follow.

Consider the worked cases shown below.
SLNEGYAKDFD [FBP1_Y216_R218K] = 0.371
EMFNPCFGLFE [NEDD4L_Y679_Y679C_YF] = 0.725
PADCRYFAFPQ [GAMT_Y222_YF] = 1.43
DKITQYVEEVR [STX2_Y49_K54R] = 0.417
LTNDRYLATLT [IL6ST_Y396] = 0.533
DVFRQYASLRG [GANAB_Y379_T383R] = 0.399
AQADIYKANFQ [IKBKG_Y308_D311N] = 0.799
TDLAYYLVRKG [ASL_Y376] = 0.783
MTRDIYRASFF [ALK_Y1278_A1274T_YF] = 0.592
CFTGKYTLPPG [HSPB1_Y142_R140G] = 0.429

Count: 4. Required value per item: phosphorylation enrichment.
1. CCNHPYLINGA [CHD7_Y1256]
2. ELPEKYSQNIY [PKP2_Y626]
3. LRAGVYREKDQ [DNM2_Y626_P627R]
4. VTVLDYEKIGK [SYT1_Y365_D366E]

Result:
[2.72, 0.575, 0.448, 0.355]

----------
# Target Of Assay: FGFR3 (UniProt P22607)
# Sequence (P22607 whole entry, looked up): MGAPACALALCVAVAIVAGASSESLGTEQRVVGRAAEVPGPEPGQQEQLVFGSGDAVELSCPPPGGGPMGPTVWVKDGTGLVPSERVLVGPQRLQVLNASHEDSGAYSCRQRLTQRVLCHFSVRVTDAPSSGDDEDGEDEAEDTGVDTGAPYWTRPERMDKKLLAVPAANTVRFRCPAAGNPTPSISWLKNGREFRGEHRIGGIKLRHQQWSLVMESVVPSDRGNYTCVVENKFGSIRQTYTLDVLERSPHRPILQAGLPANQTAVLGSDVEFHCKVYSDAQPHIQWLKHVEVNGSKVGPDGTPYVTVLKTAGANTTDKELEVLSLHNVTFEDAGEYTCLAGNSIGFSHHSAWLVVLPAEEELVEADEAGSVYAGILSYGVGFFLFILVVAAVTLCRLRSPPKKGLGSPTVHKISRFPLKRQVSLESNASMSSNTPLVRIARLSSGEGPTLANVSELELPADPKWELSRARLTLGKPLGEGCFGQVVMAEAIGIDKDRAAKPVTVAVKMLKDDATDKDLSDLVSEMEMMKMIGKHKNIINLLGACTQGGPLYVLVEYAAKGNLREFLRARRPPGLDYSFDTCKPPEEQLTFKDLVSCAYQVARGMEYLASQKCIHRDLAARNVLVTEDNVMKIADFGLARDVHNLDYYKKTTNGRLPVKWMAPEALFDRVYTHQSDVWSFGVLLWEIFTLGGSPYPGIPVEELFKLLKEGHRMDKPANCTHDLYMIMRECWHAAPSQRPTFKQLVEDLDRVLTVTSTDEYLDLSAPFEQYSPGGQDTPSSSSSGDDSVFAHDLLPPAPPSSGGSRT
# Protocol Details: phosphorylation enrichment, bacterial display (enrichment ratio); higher = better substrate or ligand; peptides without Tyr show the background
Class Y: phosphorylation enrichment at least 0.5. Class N: phosphorylation enrichment below 0.5.

See these solved cases before continuing.
FSCLPCGRLAF [SLC52A2_Y305_Y305C_YF] = Y
EGDGVYTLNNK [HP_Y125_E130K] = Y
YIATQYSLRPR [LBR_Y166] = Y
TVLGEYASPKG [CYP24A1_Y407_L409S] = N
INSLKYAYNVS [EIF2B5_Y583_I587V] = Y

Query: State whether the measured phosphorylation enrichment reaches 0.5, counting equality as reaching it, for HRDSSYYWEIE [RAF1_Y340_Q335H]
Result: Y

----------
# Target Of Assay: Hck (UniProt P08631)
# Sequence (P08631 whole entry, looked up): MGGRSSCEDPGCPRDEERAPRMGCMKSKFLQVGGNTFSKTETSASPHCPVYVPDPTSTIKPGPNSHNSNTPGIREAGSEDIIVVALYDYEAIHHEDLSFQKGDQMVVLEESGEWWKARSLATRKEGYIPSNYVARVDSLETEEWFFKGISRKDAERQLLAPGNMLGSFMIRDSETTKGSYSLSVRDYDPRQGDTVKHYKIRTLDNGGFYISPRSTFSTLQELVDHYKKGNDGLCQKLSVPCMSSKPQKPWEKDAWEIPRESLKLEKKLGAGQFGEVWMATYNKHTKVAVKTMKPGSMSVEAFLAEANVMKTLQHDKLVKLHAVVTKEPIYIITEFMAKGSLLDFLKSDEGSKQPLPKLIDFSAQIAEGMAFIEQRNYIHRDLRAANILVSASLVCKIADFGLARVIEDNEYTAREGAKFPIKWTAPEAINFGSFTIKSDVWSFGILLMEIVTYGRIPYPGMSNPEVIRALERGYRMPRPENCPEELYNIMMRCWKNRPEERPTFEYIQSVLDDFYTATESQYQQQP
# Protocol Details: phosphorylation enrichment, bacterial display (enrichment ratio); higher = better substrate or ligand; peptides without Tyr show the background
Observable: phosphorylation enrichment
Numbers only.

Some solved cases for reference:
YQKDVYNIPPS [NEDD9_Y177_D178N] = 2.34
ISGGGYRARPA [FGB_Y71] = 0.404
VTVLDYEKIGK [SYT1_Y365_D366E] = 0.573
DAVAVCHGKIS [SH2D1A_Y7_Y7C] = 0.458
QFNPEYVQQAS [LRRC7_Y1058_H1054Y_YF] = 0.792

Please give phosphorylation enrichment, item by item, for the list that follows.
1. YVSSFYHAFSG [ACTN4_Y265]
2. RLSARYFQGDL [PDK3_Y337_Y334S]
3. TRYDEYLEVTK [MAP1A_Y2217_H2214Y]
4. NELTYYCCKKD [CD59_Y87]

Result:
1. 2.82
2. 0.362
3. 0.539
4. 3.04

Hey, can you go through the list below and give me phosphorylation enrichment for every item?
1. RGRSTCFWPRP [GAGE12J_Y9_Y9C_YF]
2. PSPMPCASCQM [FOXL2_Y215_Y215C]
3. RGKDNYETSQL [SPP1_Y225_S224N]

Result:
1. 0.635
2. 0.41
3. 0.56

Hi! Can you tell me phosphorylation enrichment for each of these sequences?
1. AGQKDYDRLRP [RAC3_Y64_E62K]
2. FGLDHYQCDCT [PTGS1_Y54_R53H]

Result:
1. 0.47
2. 0.424
